- TESTED TARGET: human ether-à-go-go-related gene (hERG) potassium channel (human, UniProt Q12809);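 also: peak tail current of the secondary pulse compared with the same well before compound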
- Sequence (Q12809 whole entry, looked up): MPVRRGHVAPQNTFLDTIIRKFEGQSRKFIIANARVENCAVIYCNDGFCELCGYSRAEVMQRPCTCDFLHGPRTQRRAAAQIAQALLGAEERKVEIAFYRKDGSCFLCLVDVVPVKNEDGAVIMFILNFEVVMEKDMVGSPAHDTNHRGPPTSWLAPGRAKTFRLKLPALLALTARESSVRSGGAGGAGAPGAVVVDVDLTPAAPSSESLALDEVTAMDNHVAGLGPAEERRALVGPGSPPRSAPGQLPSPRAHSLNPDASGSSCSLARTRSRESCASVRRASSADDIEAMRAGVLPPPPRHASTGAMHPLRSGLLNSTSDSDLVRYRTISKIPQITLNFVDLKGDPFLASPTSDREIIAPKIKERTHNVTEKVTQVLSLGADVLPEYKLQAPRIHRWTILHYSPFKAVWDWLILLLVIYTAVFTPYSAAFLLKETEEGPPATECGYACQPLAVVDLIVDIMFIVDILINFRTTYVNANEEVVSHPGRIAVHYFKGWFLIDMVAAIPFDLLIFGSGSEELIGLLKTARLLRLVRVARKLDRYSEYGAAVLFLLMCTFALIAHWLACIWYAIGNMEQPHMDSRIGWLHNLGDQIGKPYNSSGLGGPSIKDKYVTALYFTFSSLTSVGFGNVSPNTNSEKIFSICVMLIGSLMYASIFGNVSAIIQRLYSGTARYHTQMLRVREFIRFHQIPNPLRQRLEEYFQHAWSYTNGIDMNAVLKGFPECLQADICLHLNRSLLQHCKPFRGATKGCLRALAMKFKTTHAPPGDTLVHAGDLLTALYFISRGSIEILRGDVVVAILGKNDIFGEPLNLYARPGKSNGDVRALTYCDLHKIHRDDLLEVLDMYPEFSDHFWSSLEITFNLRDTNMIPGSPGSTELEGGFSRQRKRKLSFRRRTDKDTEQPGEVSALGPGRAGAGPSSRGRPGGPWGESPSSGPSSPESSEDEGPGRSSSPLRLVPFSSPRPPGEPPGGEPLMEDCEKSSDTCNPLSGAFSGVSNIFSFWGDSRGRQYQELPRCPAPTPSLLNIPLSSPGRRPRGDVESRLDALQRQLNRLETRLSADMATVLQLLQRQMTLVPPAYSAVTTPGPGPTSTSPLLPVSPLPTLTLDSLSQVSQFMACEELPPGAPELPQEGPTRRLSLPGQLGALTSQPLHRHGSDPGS
- PROTOCOL TEXT: primary screen, population patch clamp on CHO cells stably expressing hERG; higher = less effect of the substance
The campaign covered roughly 310,000 compounds. About 14,000 (4.5%) showed an effect of 50% or more. The effect is printed as a negative number. For the sample, strong results were picked, then their nearest neighbours and some compounds at random.
MEASUREMENT NAME: hERG current change (%, negative = inhibition) at 10uM (%)

>>> print(df.to_string())
                                   compound                             tested_target  value_measured
0  CCOC(=O)C1CCCN(C(=O)c2ccc([N+](=O)[O-])cc2)C1 (stereo not shown)  human ether-à-go-go-related gene (hERG) potassium channel (human, UniProt Q12809)           -14.4
1  COc1ccc(CCn2c(N3CCOCC3)nc3c2c(=O)[nH]c(=O)n3C)cc1  human ether-à-go-go-related gene (hERG) potassium channel (human, UniProt Q12809)           -15.5
2     O=C(Nc1ccc2c(c1)CCC2)Nc1ccc2c(c1)OCO2  human ether-à-go-go-related gene (hERG) potassium channel (human, UniProt Q12809)            6.88
3   N#CCSc1ccccc1NC(=O)COc1ccc(-c2nnco2)cc1  human ether-à-go-go-related gene (hERG) potassium channel (human, UniProt Q12809)           -66.3
4  COCC(C)NC(=O)c1noc2c1CCc1cc(OC)ccc1-2 (stereo not shown)  human ether-à-go-go-related gene (hERG) potassium channel (human, UniProt Q12809)           -25.9
5  COc1ccc(-c2cnnc(N/N=C/c3ccc(O)c(OC)c3)n2)cc1  human ether-à-go-go-related gene (hERG) potassium channel (human, UniProt Q12809)           -50.1
6  O=C1CCC([N+](=O)[O-])C(C2CC=CCC2)N1 (stereo not shown)  human ether-à-go-go-related gene (hERG) potassium channel (human, UniProt Q12809)            4.76
7  Cc1ccccc1OCC(O)Cn1c(NCc2ccco2)nc2c1c(=O)[nH]c(=O)n2C (stereo not shown)  human ether-à-go-go-related gene (hERG) potassium channel (human, UniProt Q12809)             4.8
8  COc1ccc(-c2cnnc(N/N=C/c3ccc(OC)c(OC)c3)n2)cc1  human ether-à-go-go-related gene (hERG) potassium channel (human, UniProt Q12809)           -35.7
9  CC1CCCN(C(=O)c2ccc([N+](=O)[O-])o2)C1 (stereo not shown)  human ether-à-go-go-related gene (hERG) potassium channel (human, UniProt Q12809)            21.6

###

- TESTED TARGET: human ether-à-go-go-related gene (hERG) potassium channel (human);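 also: peak tail current of the secondary pulse compared with the same well before compound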
- PROTOCOL TEXT: primary screen, population patch clamp on CHO cells stably expressing hERG; higher = less effect of the substance
- Experimental: Briefly, Chinese hamster ovary (CHO) cells stably expressing the hERG channel were dislodged from tissue culture flasks and dispensed into PPC plates. […] During the recording, background leak currents were estimated by a 100 ms step to -80 mV from an initial holding potential of -70 mV and subtracted from the subsequent current measurement. The campaign was conducted in two phases using slight differences in recording protocol. […]
The whole screen tested about 310,000 compounds, of which about 14,000 (4.5%) showed an effect of 50% or more. The effect is printed as a negative number. The sample as a whole holds a higher share of strong results than the screen did.
MEASUREMENT NAME: hERG current change (%, negative = inhibition) at 10uM

                                        mol  value_measured
0  Cc1ccc(SCC(=O)Nc2ccc(N3CCN(C)CC3)c(F)c2)c(C)c1            -72%
1  CCN1C(=NCCOC)N[C@@H](c2cccc(F)c2)C(C(=O)OC)=C1C          -14.3%
2  O=C(CSc1nc2c(c(=O)n1-c1ccc(Cl)cc1)SCC2)NCc1ccco1          -19.4%
3  COC(=O)C1=C(C)N(Cc2ccccc2)C(=NCc2ccc(OC)cc2)N[C@H]1c1cccc(F)c1           6.76%
4  CCN1C(=NCCc2ccccn2)N[C@@H](c2cccc(F)c2)C(C(=O)OC)=C1C          -56.7%

src = paper PMC4336329
